- assay.system: PfMyoA (Plasmodium falciparum, UniProt Q8IDR3)
- Sequence (Q8IDR3 whole entry): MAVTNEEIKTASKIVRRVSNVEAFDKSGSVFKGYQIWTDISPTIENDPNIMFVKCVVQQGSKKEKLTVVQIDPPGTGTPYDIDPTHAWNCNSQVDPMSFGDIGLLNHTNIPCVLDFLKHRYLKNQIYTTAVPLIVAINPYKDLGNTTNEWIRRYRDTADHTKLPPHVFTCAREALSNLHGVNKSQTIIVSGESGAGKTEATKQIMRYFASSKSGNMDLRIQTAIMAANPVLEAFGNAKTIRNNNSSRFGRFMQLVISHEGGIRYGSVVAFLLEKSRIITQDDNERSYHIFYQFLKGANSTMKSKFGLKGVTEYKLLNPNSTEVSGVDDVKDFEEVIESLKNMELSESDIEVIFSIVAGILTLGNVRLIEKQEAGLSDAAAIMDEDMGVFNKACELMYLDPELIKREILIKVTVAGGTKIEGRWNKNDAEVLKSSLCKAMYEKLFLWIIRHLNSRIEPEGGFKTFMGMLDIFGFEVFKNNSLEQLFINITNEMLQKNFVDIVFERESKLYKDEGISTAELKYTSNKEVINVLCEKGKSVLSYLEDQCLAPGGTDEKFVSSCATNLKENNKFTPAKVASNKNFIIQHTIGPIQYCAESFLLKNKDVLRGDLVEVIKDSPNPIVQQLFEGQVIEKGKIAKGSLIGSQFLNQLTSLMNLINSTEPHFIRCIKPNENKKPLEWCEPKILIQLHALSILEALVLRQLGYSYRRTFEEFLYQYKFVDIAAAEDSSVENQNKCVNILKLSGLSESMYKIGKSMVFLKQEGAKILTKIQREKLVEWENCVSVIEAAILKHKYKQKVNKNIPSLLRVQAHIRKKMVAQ
- Sequence (Q8IJM4 1-134 partner): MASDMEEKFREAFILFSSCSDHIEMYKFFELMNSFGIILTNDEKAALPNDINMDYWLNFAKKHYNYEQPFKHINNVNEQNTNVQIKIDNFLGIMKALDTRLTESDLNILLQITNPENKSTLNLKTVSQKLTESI
- Sequence (Q8I4W8 1-204 partner): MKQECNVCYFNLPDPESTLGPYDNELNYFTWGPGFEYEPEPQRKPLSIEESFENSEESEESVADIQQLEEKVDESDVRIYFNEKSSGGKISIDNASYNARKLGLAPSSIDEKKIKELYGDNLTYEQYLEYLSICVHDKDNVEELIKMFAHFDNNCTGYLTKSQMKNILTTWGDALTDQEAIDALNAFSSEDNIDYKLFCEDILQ
- assay.name: actin-activated ATPase, PK/LDH-coupled NADH absorbance
- condition.summary: 2 mM ATP, bovine cardiac actin, 3 mM MgCl2, 5 mM KCl, pH 7.4, 2% DMSO; n = 5
measured.attribute: IC50 (nM)
Quick reminder: number only, in nM, skip the unit.

State its IC50 for this compound: COc1ccc(C2(NCc3c[nH]nc3-c3cccs3)CC2)cc1 400
